- Tested on: NCI-H226;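 note: cell viability read-out used to gauge growth inhibition of the cells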
- assayProcedure: cells
- Assay type: functional, cell-based, Homo sapiens
- measurementParameters: nci-h226
- Description: SANGER: Inhibition of human NCI-H226 cell growth in a cell viability assay.
valueKind: pIC50
Field pIC50 (float): negative decimal logarithm of the concentration in molar.

Value of pIC50 reported for the sequence `CISPLATIN` is 4.38

----------
What IC50 was measured for each of the following?
- Test system: LAMA-84;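 note: growth inhibition of LAMA-84 cells, read out with a cell viability assay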
- assayProcedure: cells
- Assay type: functional, cell-based, Homo sapiens
- measurementParameters: Homo sapiens, LAMA-84
- Description: SANGER: Inhibition of human LAMA-84 cell growth in a cell viability assay.
Numeric only. Scale: nM

Short answer for `O=C(O)c1ccc(-c2c[nH]c3ncc(-c4ccccc4)cc23)cc1C1CCCC1` : IC50 was 10200

Notebook: `COc1cc2c(Nc3ccc(NC(=O)c4ccccc4)cc3)ncnc2cc1OCCCN1CCOCC1` , IC50 read as 1760

For record `Cc1cc([N+](=O)[O-])ccc1NS(=O)(=O)c1cc(Cl)ccc1Cl` the listed IC50 is 6090

Record `OCCCNc1cc(-c2ccnc(Nc3cccc(Cl)c3)n2)ccn1` , field IC50: 203

Given item `N#Cc1c(O)c2c(-c3ccc(-c4ccccc4O)cc3)csc2[nH]c1=O` , the value recorded as its IC50 is 308

# IC50 of `Nc1ccn([C@@H]2O[C@H](CO)[C@@H](O)C2(F)F)c(=O)n1` = 115

----------
- Test system: EC-GI-10
- assayProcedure: cells
- Format: functional, cell-based, Homo sapiens
- measurementParameters: Homo sapiens, EC-GI-10
- Description: SANGER: Inhibition of human EC-GI-10 cell growth in a cell viability assay.
pIC50: −log10 of the molar value.
Please go through the items and note down their pIC50.

# pIC50 (molecule: `N#Cc1c(O)c2c(-c3ccc(-c4ccccc4O)cc3)csc2[nH]c1=O` ) is < 5.99

Lookup result for `COc1cc(N2CCN(C)CC2)ccc1Nc1ncc2c(n1)N(C)c1ccccc1C(=O)N2C` ; measured pIC50: < 5.10

Entry under test: `Cc1ccc(-c2c(C(=O)CCl)n(CCCO)c3ncnc(N)c23)cc1` . Its pIC50 was < 5.40

----------
- System: SW948
- assayProcedure: cells
- Assay type: functional, cell-based, Homo sapiens
- measurementParameters: Homo sapiens, SW948
- Description: SANGER: Inhibition of human SW948 cell growth in a cell viability assay.
valueKind: IC50

# IC50 (compound: `CO[C@H]1C[C@@H]2CC[C@@H](C)[C@@](O)(O2)C(=O)C(=O)N2CCCC[C@H]2C(=O)O[C@H]([C@H](C)C[C@@H]2CC[C@@H](OC(=O)C(C)(CO)CO)[C@H](OC)C2)CC(=O)[C@H](C)/C=C(\C)[C@@H](O)[C@@H](OC)C(=O)[C@H](C)C[C@H](C)/C=C/C=C/C=C/1C` ) is > 0.2 µM

Query `CC1(C)CNc2cc(NC(=O)c3cccnc3NCc3ccncc3)ccc21` yields IC50 of > 2 µM

IC50 in this record for `COc1cc2c(Nc3ccc(NC(=O)c4ccccc4)cc3)ncnc2cc1OCCCN1CCOCC1` : > 4 µM

IC50 measured on `CN(C)C(=N)NC(=N)N` = > 20000 µM

Looking up `CCC/C=C/C=C/C(=O)O[C@H]1/C(=C/C(=O)OC)C[C@H]2C[C@H]([C@@H](C)O)OC(=O)C[C@H](O)C[C@@H]3C[C@H](OC(C)=O)C(C)(C)[C@](O)(C[C@@H]4C/C(=C/C(=O)OC)C[C@H](/C=C/C(C)(C)[C@]1(O)O2)O4)O3` , I found its IC50 recorded as > 0.008 µM

Documented IC50 of `CS(=O)(=O)c1ccc(C(=O)Nc2ccc(Cl)c(-c3ccccn3)c2)c(Cl)c1` : > 10 µM

----------
- System: MES-SA
- assayProcedure: cells
- Assay type: functional, cell-based, Homo sapiens
- measurementParameters: mes-sa
- Description: SANGER: Inhibition of human MES-SA cell growth in a cell viability assay.
valueKind: IC50 (µM)
Write the value in µM as a bare number.

For this sequence ( `BLEOMYCIN` ), measured IC50 is 1.67

----------
- System: NCI-H2171;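 note: growth inhibition of human NCI-H2171 cells, read out by a cell viability assay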
- assayProcedure: cells
- Type: functional, cell-based, Homo sapiens
- measurementParameters: nci-h2171
- Description: SANGER: Inhibition of human NCI-H2171 cell growth in a cell viability assay.
valueKind: pIC50
// field semantics: pIC50 = negative decimal log of concentration (mol/L)

Tested on NCI-H2171: `BLEOMYCIN` . Observed pIC50: 2.85

----------
Hi there, I'd appreciate the recorded pIC50 for every entry that follows.
- System: P31-FUJ;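 note: growth inhibition of P31-FUJ cells, read out with a viability assay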
- assayProcedure: cells
- Assay type: functional, cell-based, Homo sapiens
- measurementParameters: Homo sapiens, P31-FUJ
- Description: SANGER: Inhibition of human P31-FUJ cell growth in a cell viability assay.
pIC50: −log10 of the molar value.

Here `Cc1cc([N+](=O)[O-])ccc1NS(=O)(=O)c1cc(Cl)ccc1Cl` was tested on P31-FUJ, and its pIC50 came to 5.11

Measured pIC50 for this entry `N[C@@H](CSC(c1ccccc1)(c1ccccc1)c1ccccc1)C(=O)O` on P31-FUJ: < 5.29

Kindly note: P31-FUJ, `CCN(CC)CCNC(=O)c1c(C)[nH]c(/C=C2\C(=O)Nc3ccc(F)cc32)c1C` , pIC50 value reported: < 5.10

Tested on P31-FUJ: `Cc1ccc(-c2c(C(=O)CCl)n(CCCO)c3ncnc(N)c23)cc1` . Observed pIC50: < 5.40

With P31-FUJ as the test system, `CC(=O)O[C@H]1C(=O)[C@@]2(C)[C@H]([C@H](OC(=O)c3ccccc3)[C@]3(O)C[C@H](OC(=O)[C@H](O)[C@@H](NC(=O)c4ccccc4)c4ccccc4)C(C)=C1C3(C)C)[C@]1(OC(C)=O)CO[C@@H]1C[C@@H]2O` showed pIC50 of < 6.99

Value sought: pIC50, system P31-FUJ, item `CC[C@H](CO)Nc1nc(NCc2ccccc2)c2ncn(C(C)C)c2n1` . Result: < 4.80

Result for `COc1cc(-c2nn([C@H]3CC[C@H](N4CCN(C(C)=O)CC4)CC3)c3ncnc(N)c23)ccc1NC(=O)c1cc2ccccc2n1C` , tested on P31-FUJ, pIC50: < 5.29

----------
- Tested on: MFH-ino
- assayProcedure: cells
- Assay type: functional, cell-based, Homo sapiens
- measurementParameters: Homo sapiens, MFH-ino
- Description: SANGER: Inhibition of human MFH-ino cell growth in a cell viability assay.
Counter-ions that a name gives are not always drawn.
valueKind: IC50 (µM)
Numbers only here, please. The scale is µM.

Reported IC50 (MFH-ino) for entry O=C(O)c1ccc(-c2c[nH]c3ncc(-c4ccccc4)cc23)cc1C1CCCC1 [GSK-650394] is 1.99

Let me check: COC1=CC(c2cc3ccccc3[nH]2)=N/C1=C\c1[nH]c(C)cc1C [OBATOCLAX MESYLATE] , system MFH-ino, measured IC50 is 0.247

----------
Please provide measured IC50 for the entries that follow.
- Test system: ABC-1
- assayProcedure: cells
- Format: functional, cell-based, Homo sapiens
- measurementParameters: Homo sapiens, ABC-1
- Description: SANGER: Inhibition of human ABC-1 cell growth in a cell viability assay.

ABC-1 data for `Nc1ccn([C@@H]2O[C@H](CO)[C@@H](O)C2(F)F)c(=O)n1` ; its IC50: 0.0226 µM

Entry `C=C(c1ccc(C(=O)O)cc1)c1cc2c(cc1C)C(C)(C)CCC2(C)C` : IC50 on ABC-1 = > 8 µM

IC50 for ABC-1 with input `CN(C)C(=N)NC(=N)N` equals > 20000 µM

Form: item `N#Cc1c(O)c2c(-c3ccc(-c4ccccc4O)cc3)csc2[nH]c1=O` ; test system ABC-1; IC50: > 1.02 µM

Reading of IC50 for `CC(C)c1ccccc1Cc1cc(C(=O)Nc2ccc(S(=O)(=O)c3ccccc3C(C)(C)C)cc2)c(O)c(O)c1O` with ABC-1: 0.316 µM

IC50 on ABC-1 for Nc1cccc2c1CN(C1CCC(=O)NC1=O)C2=O (configuration not stated) [LENALIDOMIDE] is > 5 µM

The compound `Cc1cn(-c2cc(NC(=O)c3ccc(C)c(Nc4nccc(-c5cccnc5)n4)c3)cc(C(F)(F)F)c2)cn1` , tested on ABC-1, showed IC50 of > 2 µM

----------
- System: NCI-H2228
- assayProcedure: cells
- Type: functional, cell-based, Homo sapiens
- measurementParameters: Homo sapiens, NCI-H2228
- Description: SANGER: Inhibition of human NCI-H2228 cell growth in a cell viability assay.
valueKind: IC50

So for `Cc1cn(-c2cc(NC(=O)c3ccc(C)c(Nc4nccc(-c5cccnc5)n4)c3)cc(C(F)(F)F)c2)cn1` , the logged IC50 turned out to be > 2 µM

IC50 measured on `CC1(C)CNc2cc(NC(=O)c3cccnc3NCc3ccncc3)ccc21` = > 2 µM

Value of IC50 reported for the compound `N#Cc1c(O)c2c(-c3ccc(-c4ccccc4O)cc3)csc2[nH]c1=O` is > 1.02 µM

// IC50 value for `CC(C)c1ccccc1Cc1cc(C(=O)Nc2ccc(S(=O)(=O)c3ccccc3C(C)(C)C)cc2)c(O)c(O)c1O` : 0.662 µM

Consider `Oc1ccc2ccccc2c1SSc1c(O)ccc2ccccc12` . Its measured IC50 is > 32 µM

The recorded IC50 for `CN(C)C(=N)NC(=N)N` is > 20000 µM

----------
- Test system: LU-139
- assayProcedure: cells
- Format: functional, cell-based, Homo sapiens
- measurementParameters: Homo sapiens, LU-139
- Description: SANGER: Inhibition of human LU-139 cell growth in a cell viability assay.
Exercise: state measured IC50 for each of the compounds provided.
# value in µM; strip the unit string

So, `COc1cc2c(Nc3ccc(NC(=O)c4ccccc4)cc3)ncnc2cc1OCCCN1CCOCC1` ? Its IC50 was 3.83

Just so you know, measured IC50 for `COc1cccc2c1C(=O)c1c(O)c3c(c(O)c1C2=O)C[C@@](O)(C(=O)CO)C[C@@H]3O[C@H]1C[C@H](N)[C@H](O)[C@H](C)O1` came out at 0.345

Just so you know, measured IC50 for `N[C@@H](CSC(c1ccccc1)(c1ccccc1)c1ccccc1)C(=O)O` came out at 2.91

Data point: `CO[C@H]1C[C@@H]2CC[C@@H](C)[C@@](O)(O2)C(=O)C(=O)N2CCCC[C@H]2C(=O)O[C@H]([C@H](C)C[C@@H]2CC[C@@H](OC(=O)C(C)(CO)CO)[C@H](OC)C2)CC(=O)[C@H](C)/C=C(\C)[C@@H](O)[C@@H](OC)C(=O)[C@H](C)C[C@H](C)/C=C/C=C/C=C/1C` ; IC50 = 0.0533

Reference for the values: ChEMBL document CHEMBL1201861
